# testedTarget: H1/Cal HA (biotinylated full length trimeric HA, A/California/07/2009) (Influenza A virus)
# experimentSummary: AlphaLISA competition assay with HB80.4, H1/Cal HA
Where a SMILES comes first, the peptide text is derived from it.
attributeMeasured: pIC50
Answers are plain numbers, as −log10 of the molar value.

Problem: Return reported pIC50 for target or system H1/Cal HA (biotinylated full length trimeric HA, A/California/07/2009) (Influenza A virus), item CC[C@@H]1NC(=O)[C@H](C(C)C)NC(=O)CNC(=O)[C@H](CCCc2ccccc2)NC(=O)[C@@H]2CCCN2C(=O)[C@H](CC(=O)O)NC(=O)[C@H](CCC(=O)O)NC(=O)[C@H](Cc2ccc(O)cc2)NC(=O)[C@H](CC(C)C)NC(=O)CNC(=O)[C@H]2CCCN2C(=O)CNC(=O)[C@H](CCSC)NC(=O)CNC(=O)CNC1=O [CP141092] (HELM PEPTIDE1{[Abu].G.G.M.G.[dP].G.L.Y.E.D.P.[O=C([C@H](CCCc1ccccc1)N[*:1])[*:2]].G.V}$PEPTIDE1,PEPTIDE1,1:R1-15:R2$$$V2.0) .
Solution: 6.40

----------
For each record, write down the corresponding VNA_H1_NCa_Calu3 pIC50.
# Tested on: influenza virus A/New Caledonia (H1)
# experimentSummary: Virus neutralization assay (VNA) on Calu-3 cells
# Type: cell-based, influenza A virus H1N1 A/New Caledonia/20/1999
# experimentalContext: Calu-3 cells, 5 TCID50/50 μL virus, 4 days, NP ELISA readout
One number for each entry.

Recorded VNA_H1_NCa_Calu3 pIC50, per entry:
Problem: Give the value of VNA_H1_NCa_Calu3 pIC50 reported for the following: CSCC[C@@H]1NC(=O)CNC(=O)CNC(=O)[C@H](C)NC(=O)[C@H](C(C)C)NC(=O)CNC(=O)[C@H](CC(C)C)NC(=O)[C@@H]2CCCN2C(=O)[C@H](CC(=O)O)NC(=O)[C@H](CCC(=O)O)NC(=O)[C@H](Cc2ccc(O)cc2)NC(=O)[C@H](CC(C)C)NC(=O)[C@@H](NC(=O)CCC(=O)O)CSSC[C@@H](C(N)=O)NC(=O)CNC1=O
Solution: 6.1

Problem: Give the value of VNA_H1_NCa_Calu3 pIC50 reported for the following: CSCC[C@@H]1NC(=O)CNC(=O)CNC(=O)[C@H](C)NC(=O)[C@H](C(C)C)NC(=O)CNC(=O)[C@H](CC(C)C)NC(=O)[C@@H]2CCCN2C(=O)[C@H](CC(=O)O)NC(=O)[C@H](CCC(=O)O)NC(=O)[C@H](Cc2ccc(O)cc2)NC(=O)[C@H](CC(C)C)NC(=O)[C@H](CO)NC(=O)[C@H](C(C)C)NC(=O)[C@@H]2CCCN2C(=O)[C@H]2CCCN2C(=O)[C@H](Cc2ccc(O)cc2)NC(=O)[C@H](C(C)C)NC(=O)CNC1=O
Solution: 5.9

# input for lookup
Problem: Give the value of VNA_H1_NCa_Calu3 pIC50 reported for the following: CSCC[C@@H]1NC(=O)CNC(=O)CNC(=O)[C@H](C)NC(=O)[C@H](C(C)C)NC(=O)CNC(=O)[C@H](CC(C)C)NC(=O)[C@@H]2CCCN2C(=O)[C@H](CC(=O)O)NC(=O)[C@H](CCC(=O)O)NC(=O)[C@H](Cc2ccc(O)cc2)NC(=O)[C@H](CC(C)C)NC(=O)[C@H](CO)NC(=O)[C@H](C(C)C)NC(=O)CNC(=O)[C@H]2CCCN2C(=O)[C@H](Cc2ccc(O)cc2)NC(=O)[C@H](C(C)C)NC(=O)CNC1=O
Solution: 4.3
